experiment: qHTS of pediatric cancer cell lines to identify multiple opportunities for drug repurposing: Primary screen for Rh30 cells (AID 1347107); details: Rh30 rhabdomyosarcoma viability, CellTiter-Glo luminescence, 48 h; series mostly up to 46 µM; note: nearly all actives have a fitted effect of over 75% in size
Results filed as inconclusive are left out. Active and inactive are the calls of the source. Calls come from the whole dose curve; as a rule, active = well fitted cell-killing curve with a large enough effect; inconclusive = small, poorly fitted or top-dose-only effect; inactive = no such curve, though single readings can be large or run the other way.
Classes used: 1.0 = active, 0.0 = inactive

compound="NCC1CCC(C(=O)O)CC1 (stereo unspecified)" assigned_class=0.0
compound=CCC(=O)NCC[C@@H]1CCc2ccc3c(c21)CCO3 assigned_class=0.0
compound=Cc1ccc(C(=O)N(CCCN)[C@@H](c2nc3cc(Cl)ccc3c(=O)n2Cc2ccccc2)C(C)C)cc1 assigned_class=0.0
compound=NC(=O)c1noc([C@H](CCCC2CCCCC2)CC(=O)NO)n1 assigned_class=1.0
compound=Cc1cccc2c1CC[C@H](CN1CCC(c3c(Cl)cccc3Cl)CC1)C[C@@H]2O assigned_class=0.0
compound=O=C1CCCC(=O)C1C(=O)c1ccc(C(F)(F)F)cc1[N+](=O)[O-] assigned_class=0.0
compound=CN(C)c1ccccc1CN1CCCN(Cc2ccccc2N(C)C)C1c1ccncc1 assigned_class=0.0
compound=CN1CCc2c(n(Cc3ccc(C(=O)NO)cc3)c3ccccc23)C1 assigned_class=0.0
compound="CC1C(=O)OC2C(O)C34C5CC(C(C)(C)C)C36C(OC(=O)C6O)OC4(C(=O)O5)C12O (stereo unspecified)" assigned_class=0.0
compound=COC(=O)Nc1ccc(-c2nc(N3CCOCC3)c3cnn(C4CCN(C(=O)OC)CC4)c3n2)cc1 assigned_class=0.0
compound=C[C@]12C=CC(=O)C=C1CC[C@@H]1[C@@H]2[C@@H](O)C[C@@]2(C)[C@@H]1CC[C@]2(O)C(=O)CO assigned_class=0.0
compound="CC1=C(C(=O)Nc2cc3cn[nH]c3cc2F)C(c2ccc(C(F)(F)F)cc2)CC(=O)N1 (stereo unspecified)" assigned_class=0.0
compound=CN(C)CCOc1ccc(-c2nc(-c3ccc4c(c3)CCC4=NO)c(-c3ccncc3)[nH]2)cc1 assigned_class=1.0
compound=NC(=O)c1ncn([C@@H]2O[C@H](CO)[C@@H](O)[C@@H]2O)n1 assigned_class=0.0
compound=CN[C@@H]1[C@@H](O)[C@@H](O[C@@H]2[C@@H](O)[C@H](O[C@H]3O[C@H](CN)[C@@H](O)[C@H](O)[C@@H]3O)[C@@H](N)C[C@@H]2NC(=O)[C@@H](O)CN)OC[C@]1(C)O assigned_class=0.0
compound=COc1c(C)cnc(Cn2cnc3c(Cl)nc(N)nc32)c1C assigned_class=0.0
compound=C[C@@]1(c2cc(-c3cncnc3)c(F)cc2F)CCSC(N)=N1 assigned_class=0.0
compound=CC(C)(CO)[C@@H](O)C(=O)NCCC(=O)O assigned_class=0.0
compound=CCCCCCCCCCCCCC(=O)N[C@H](CO)[C@H](O)c1ccc([N+](=O)[O-])cc1 assigned_class=0.0
compound=C[C@@H]1C[C@H]2[C@@H]3CCC4=CC(=O)C=C[C@]4(C)[C@@]3(F)[C@@H](O)C[C@]2(C)[C@@]1(O)C(=O)CO assigned_class=0.0
compound=COc1cc(N2CCN(C)CC2)ccc1Nc1nc(N)c(C(=O)c2c(Cl)cccc2Cl)s1 assigned_class=0.0

###

test: qHTS drug screen for cell cycle checkpoint inhibitors in PARPi-resistant BRCA-mutant ovarian cancer cell lines. (AID 1963452); settings: PEO1/OlaR viability, CellTiter-Glo luminescence, 96 h; measured here: PEO4 Z-AUC; stronger effect = lower value
// NB: equality with 0.7 counts as Not satisfied; only Z-AUC strictly below is Satisfied

query_smiles=O=C1CCCC(=O)C1C(=O)c1ccc(C(F)(F)F)cc1[N+](=O)[O-] assigned_class=Satisfied
query_smiles=c1cc(OCCN2CCCCC2)cc(-c2n[nH]c3ccc(-c4ncn[nH]4)cc23)c1 assigned_class=Satisfied
query_smiles=CCN(CC)CCCCNc1nc2cc(Cl)c(Cl)cc2nc1-c1ccc(-c2cccs2)s1 assigned_class=Satisfied
query_smiles=Cc1nc2c([nH]1)CCN(C(=O)c1ccc(NC(=O)c3ccccc3-c3ccccc3)cc1)c1ccccc1-2 assigned_class="Not satisfied"
query_smiles=Cc1cn([C@@H]2C[C@@H](O)[C@H](CO)O2)c(=O)[nH]c1=O assigned_class="Not satisfied"
query_smiles=O=C1C(c2c(O)[nH]c3ccccc23)=Nc2ccccc21 assigned_class=Satisfied
query_smiles=Cc1cccc(Nc2nc(N[C@@H]3CCCC[C@H]3N)ncc2C(N)=O)c1 assigned_class=Satisfied
